// data source = ChEMBL document CHEMBL4715770

molecular target: Dual specificity protein phosphatase 23 (Homo sapiens)
Sequence (Q9BVJ7 whole entry): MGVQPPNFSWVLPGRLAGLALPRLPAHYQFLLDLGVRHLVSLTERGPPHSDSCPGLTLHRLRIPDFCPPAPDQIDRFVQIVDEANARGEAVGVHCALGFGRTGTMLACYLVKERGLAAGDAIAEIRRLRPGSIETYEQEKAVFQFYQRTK
pIC50: −log10 of the molar value.
Endpoint: pIC50

Guide cases for pIC50, answers given:
>>> result("O=C(Nc1nc2ccc([N+](=O)[O-])cc2s1)C(c1ccccc1)S(=O)(=O)O (stereo not given)")
"< 4.00"
>>> result("O=C(Nc1ccc(N2CCOCC2)cc1)C(c1ccccc1)S(=O)(=O)O (stereo not given)")
"< 3.70"
>>> result("O=C(Nc1ccc(-n2ccnc2)cc1)C(c1ccccc1)S(=O)(=O)O (stereo not given)")
"< 4.00"

Query the reported pIC50 for Dual specificity protein phosphatase 23 (Homo sapiens); item: O=C(Nc1cc(C(F)(F)F)cc(C(F)(F)F)c1)C(c1ccccc1)S(=O)(=O)O (stereo not given)
< 3.70

Short answer please: pIC50, Dual specificity protein phosphatase 23 (Homo sapiens), entry Cc1c(Br)cc(NC(=O)C(c2ccccc2)S(=O)(=O)O)cc1Br (stereo not given)
< 3.70
